# Tested on: Escherichia coli, ATCC 25922
# protocol: Antibacterial activity, serial dilutions in liquid broth (MIC/MBC)
# Format: cell-based
# particulars: E. coli (G −)
recorded-endpoint: MIC (µg/mL)
Please respond with the number in µg/mL and leave the unit unwritten.

The observed MIC for COc1cccc(C=NNC(=O)c2ccncc2)c1[O-].COc1cccc(C=NNC(=O)c2ccncc2)c1[O-].[Zn+2] [complex 6, [Zn(L)2]] when tested with Escherichia coli, ATCC 25922 stands at 125

The observed MIC for COc1cccc(C=NNC(=O)c2ccncc2)c1[O-].COc1cccc(C=NNC(=O)c2ccncc2)c1[O-].[Co+2] [complex 5, [Co(L)2]] when tested with Escherichia coli, ATCC 25922 stands at 250

The observed MIC for COc1cccc(C=NNC(=O)c2ccncc2)c1[O-].[Cl-].[Ni+2] [complex 7, [Ni(L)(Cl)]] when tested with Escherichia coli, ATCC 25922 stands at 500

The observed MIC for COc1cccc(C=NNC(=O)c2ccncc2)c1[O-].[Cl-].[Pt+2] [complex 8, [Pt(L)(Cl)]] when tested with Escherichia coli, ATCC 25922 stands at 125

The observed MIC for COc1cccc(C=NNC(=O)c2ccncc2)c1[O-].O.[Cu+2].[O-][Cl+3]([O-])([O-])[O-] [complex 4, [Cu(L)(ClO4)]·H2O] when tested with Escherichia coli, ATCC 25922 stands at 250

The observed MIC for COc1cccc(C=NNC(=O)c2ccncc2)c1[O-].O.O=[N+]([O-])[O-].[Cu+2] [complex 3, [Cu(L)(NO3)]·H2O] when tested with Escherichia coli, ATCC 25922 stands at 500

The observed MIC for NC(=O)N/N=C/c1ccc([N+](=O)[O-])o1 [Furacillinum, reference compound] when tested with Escherichia coli, ATCC 25922 stands at 18.7

The observed MIC for CC(=O)[O-].COc1cccc(C=NNC(=O)c2ccncc2)c1[O-].[Cu+2] [complex 2, [Cu(L)(CH3COO)]] when tested with Escherichia coli, ATCC 25922 stands at 500

The observed MIC for COc1cccc(C=NNC(=O)c2ccncc2)c1[O-].O.O.[Cl-].[Cu+2] [complex 1, [Cu(L)(Cl)]·2H2O] when tested with Escherichia coli, ATCC 25922 stands at 500
